Sourced from the Human Domainome abundance scans (Beltran et al. 2025)

B1: Cyclin-F, residues 28 to 80; numbered along this chain, P41002 (parent)
chain: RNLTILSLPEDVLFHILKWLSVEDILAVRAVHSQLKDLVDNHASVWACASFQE

- Variants of: B1
- experimental.protocol: abundance fitness (aPCA) (normalised: wild type 0, dead -1); higher = more abundant; growth selection in yeast, the domain comes from the species named
- condition: Homo sapiens
measurement.label: abundance fitness
Numbers only.

Known abundance fitness results, listed for orientation:
residue.sequence	assay.value
RNMTILSLPEDVLFHILKWLSVEDILAVRAVHSQLKDLVDNHASVWACASFQE [L3M]	-0.276
RNLTILSLPEDVLFHILKWLGVEDILAVRAVHSQLKDLVDNHASVWACASFQE [S21G]	-0.226
RNLTILSLPEDVLFHILCWLSVEDILAVRAVHSQLKDLVDNHASVWACASFQE [K18C]	-0.597
RNLTFLSLPEDVLFHILKWLSVEDILAVRAVHSQLKDLVDNHASVWACASFQE [I5F]	-0.254
RNLTILSLPEDVLFHILKWLSVEDILAVRAVHSQLKDKVDNHASVWACASFQE [L38K]	-0.34
RNLTILSLPEDVLFHILKWLSVEDILAVRAVHSQLKDEVDNHASVWACASFQE [L38E]	-0.872
RNLTIKSLPEDVLFHILKWLSVEDILAVRAVHSQLKDLVDNHASVWACASFQE [L6K]	-0.806
RNLYILSLPEDVLFHILKWLSVEDILAVRAVHSQLKDLVDNHASVWACASFQE [T4Y]	-0.85

State the recorded abundance fitness for every item in the following list.
1. RNLTILSLPEDVLFHILKWLSVEHILAVRAVHSQLKDLVDNHASVWACASFQE [D24H]
2. RNLTILSLPEDVLFHILKWLSVEDILVVRAVHSQLKDLVDNHASVWACASFQE [A27V]
3. RNLTILSLPEDVLFHILKWLSVEDILAVRAVHSDLKDLVDNHASVWACASFQE [Q34D]
4. RNLTILSLPEDVLFHILKWLSVEDILAVRAVHSQDKDLVDNHASVWACASFQE [L35D]

1. -0.708
2. -0.238
3. -0.446
4. -0.528
